Experiment: P. berghei load reduction in hepatocytes – cell-based, HepG2, luciferase luminescence, HepG2 viability, primary screen (AID 624349);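 note: 100% = mean of DMSO negative control wells on the same plate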
Conditions: P. berghei liver stage in HepG2, luciferase luminescence, concentration not given here; stronger effect = lower value
PARAMETER MEASURED: parasite load remaining (%)

>>> quantitative_readout("Nc1nc2ncc(CNc3ccc(C(=O)N[C@H](CCC(=O)O)C(=O)O)cc3)nc2c(=O)[nH]1")
51.4
>>> quantitative_readout("C[C@]1(OC(=O)/C=C/c2ccccc2)C[C@@H](O)[C@]2(O)C=CO[C@@H](O[C@@H]3O[C@H](CO)[C@@H](O)[C@H](O)[C@H]3O)[C@@H]21")
121
>>> quantitative_readout("CCC(C)[C@H]1O[C@]2(CC[C@@H]1C)C[C@@H]1C[C@@H](C/C=C(\\C)[C@@H](OC3C[C@H](OC)C(O[C@H]4C[C@H](OC)[C@@H](O)[C@H](C)O4)[C@H](C)O3)[C@@H](C)/C=C/C=C3\\CO[C@@H]4[C@H](O)C(C)=C[C@@H](C(=O)O1)[C@]34O)O2 (some centres not stated)")
54.4
>>> quantitative_readout("CCC(=O)[C@@]1(C)[C@H](C)C[C@H]2[C@@H]3CCC4=CC(=O)C=C[C@]4(C)[C@H]3[C@@H](O)C[C@@]21C")
104
>>> quantitative_readout("NCC[C@H](O)C(=O)NC1CC(N)C(OC2OC(CN)C(O)C(O)C2O)C(O)C1OC1OC(CO)C(O)C(N)C1O (some centres not stated)")
68.1
>>> quantitative_readout("CCCCCCOC(=O)[C@]1(O)C[C@@H]2O[C@@]1(C)n1c3ccccc3c3c4c(c5c6ccccc6n2c5c31)C(=O)NC4")
55.7
>>> quantitative_readout("C=C1CC[C@@H](O)C/C1=C/C=C1\\CCC[C@]2(C)[C@@H]([C@H](C)CCCC(C)C)CC[C@@H]12")
79.3
>>> quantitative_readout("O=c1c2ccccc2[nH]c(=S)n1CCN1CCC(=C(c2ccc(F)cc2)c2ccc(F)cc2)CC1")
40.1
>>> quantitative_readout("COc1cc2nccc(Oc3ccc(NC(=S)NC(=O)c4ccccc4C)cc3)c2cc1OC")
22.3
>>> quantitative_readout("CC(=O)OC1C=C2C(Cl)=C[C@@H]3[C@H](CC[C@@]4(C)[C@H]3CC[C@]4(OC(C)=O)C(C)=O)[C@@]2(C)CC1 (some centres not stated)")
9.03
>>> quantitative_readout("COc1ccc(-c2cnc3c(-c4ccsc4)cnn3c2)cc1")
16.9
>>> quantitative_readout("NC(=O)Nc1sc(-c2ccccc2)cc1C(N)=O")
55.2
>>> quantitative_readout("N[C@@H]1CCCC[C@H]1N.O=C(O)C(=O)O.[Pt]")
182
>>> quantitative_readout("CO[C@@H]1[C@@H](OC(N)=O)[C@@H](O)C(Oc2ccc3c(O)c(NC(=O)c4ccc(O)c(CC=C(C)C)c4)c(=O)oc3c2C)OC1(C)C (some centres not stated)")
78.5
>>> quantitative_readout("CC(=O)NC(CC(=O)O)C(=O)O (configuration not stated)")
89
>>> quantitative_readout("CC(C)C[C@H](NC(=O)[C@@H](Cc1c[nH]c2ccccc12)NC(=O)[C@H](Cc1ccc(O)cc1)NC(=O)[C@H](CO)NC(=O)[C@H](Cc1c[nH]c2ccccc12)NC(=O)[C@H](Cc1cnc[nH]1)NC(=O)[C@@H]1CCC(=O)N1)C(=O)N[C@@H](CCCN=C(N)N)C(=O)N1CCC[C@H]1C(=O)NCC(N)=O")
20.9
>>> quantitative_readout("COc1cc2ncnc(Nc3ccc(NC(=O)c4ccccc4)cc3)c2cc1OC")
41.1
>>> quantitative_readout("CS(=O)(=O)c1ccc(-c2nc(-c3ccc(F)cc3)c(-c3ccncc3)[nH]2)cc1")
28.7
>>> quantitative_readout("O=C(O)c1ccc2c3c1cccc3c(=O)n1c3ccccc3nc21")
44
>>> quantitative_readout("COc1ccc([C@@H]2CC(=O)c3c(O)cc(O[C@@H]4OC(CO[C@@H]5OC(C)[C@H](O)[C@H](O)C5O)[C@@H](O)[C@@H](O)C4O)cc3O2)cc1O (some centres not stated)")
71.5
>>> quantitative_readout("NC[C@@H]1O[C@H](O[C@H]2[C@@H](O)[C@H](O[C@@H]3[C@@H](O)[C@H](N)C[C@H](N)[C@H]3OC3O[C@H](CO)[C@@H](O)[C@H](O)[C@H]3N)O[C@@H]2CO)[C@H](N)[C@@H](O)[C@@H]1O (some centres not stated)")
69.5
>>> quantitative_readout("CC(C)n1cnc2c(NCc3ccccc3O)nc(NCCCO)nc21")
37.8
>>> quantitative_readout("C=C1/C(=C/C=C2/CCC[C@]3(C)[C@@H]([C@H](C)CCCC(C)C)CC[C@@H]23)C[C@@H](O)C[C@@H]1O")
43.3
>>> quantitative_readout("O=c1[nH][nH]c2nnc(-c3c(-c4ccccc4)nn4ccccc34)cc12")
41.8
>>> quantitative_readout("COc1c(O)cc2c(c1O)C1OC(CO)C(O)C(O)C1OC2=O (configuration not stated)")
89.5
>>> quantitative_readout("CC1=CC(=O)CC(C)(C)C1(O)/C=C/C(C)=C\\C(=O)O (configuration not stated)")
91.5
>>> quantitative_readout("CCN(CC)CCNC(=O)c1c(C)[nH]c(/C=C2\\C(=O)Nc3ccc(Cl)cc32)c1C")
49.7
>>> quantitative_readout("CC#CCC(C)[C@H](O)/C=C/[C@@H]1[C@H]2C/C(=C/CCCC(=O)O)C[C@H]2C[C@H]1O (some centres not stated)")
12.8
>>> quantitative_readout("Cc1cc(C=C2C(=O)C=CC2=O)cc(C)c1O")
28.7
>>> quantitative_readout("COc1ccc2c(c1)N(C[C@H](C)CN(C)C)c1ccccc1S2")
76.2
>>> quantitative_readout("CCCCc1c(-c2ccc(OC)cc2)[nH]c2nccnc12")
34.8
>>> quantitative_readout("c1ccc2c(-c3ccncc3)c[nH]c2c1")
30.9

* * *

Experiment: growth inhibition, single agent or in combination, cell-based, chromothripsis tumors, cisplatin or BGB combos (AID 1671449);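 note: cells exposed for 96 hours; 0% = vehicle DMSO and 100% = killing by high DMSO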
Conditions: LFS_MB_P medulloblastoma cells, measured here: combination with cisplatin, at 0.5 µM, stronger effect = higher value
PARAMETER MEASURED: inhibition (%)

>>> quantitative_readout("Nc1ccn(C2CCC(CO)O2)c(=O)n1 (configuration not stated)")
-35
>>> quantitative_readout("CC(C)(O)[C@H]1CC[C@@](C)(C2[C@@H](O)C[C@@]3(C)[C@@H]4C[C@H](O)C5C(C)(C)[C@@H](O)CCC56CC46CC[C@]23C)O1 (some centres not stated)")
-28
>>> quantitative_readout("C[C@@H]1COCCN1c1cc(C2(S(C)(=O)=O)CC2)nc(-c2cccc3[nH]ccc23)n1")
-15.1
>>> quantitative_readout("CC1CN(c2c(F)c(N)c3c(=O)c(C(=O)O)cn(C4CC4)c3c2F)CC(C)N1 (configuration not stated)")
-6.19
>>> quantitative_readout("C=C(NC(=O)C(=C)NC(=O)c1csc(C2=NC3c4csc(n4)C4NC(=O)c5csc(n5)C(C(C)(O)C(C)O)NC(=O)C5CSC(=N5)/C(=C/C)NC(=O)C(C(C)O)NC(=O)c5csc(n5)C3(CC2)NC(=O)C(C)NC(=O)C(=C)NC(=O)C(C)NC(=O)C(C(C)CC)NC2C=Cc3c(C(C)O)cc(nc3C2O)C(=O)OC4C)n1)C(N)=O (configuration not stated)")
-25.6
>>> quantitative_readout("CC(Oc1cc(-c2cnn(C3CCNCC3)c2)cnc1N)c1c(Cl)ccc(F)c1Cl (configuration not stated)")
-18.2
>>> quantitative_readout("CCC1(O)C(=O)OCc2c1cc1n(c2=O)Cc2cc3cc(O)ccc3nc2-1 (configuration not stated)")
-28.8

* * *

List of z-score values.
Experiment: galactose survival enhancers in mitochondrial complex I cybrids – cell-based, galactose medium, ATP luminescence, primary screen (AID 1645843);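 note: positive z means more ATP and so rescue of galactose-driven cybrid death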
Settings: complex I mutant cybrid cells, 72 h, stronger effect = higher value
PARAMETER MEASURED: z-score

>>> quantitative_readout("CC(=O)c1sc(Nc2ccccc2)nc1C")
0.63
>>> quantitative_readout("Cc1cn([C@H]2C[C@@H](N=[N+]=[N-])[C@@H](CO)O2)c(=O)[nH]c1=O")
0.445
>>> quantitative_readout("CCCN(C(=O)c1cccc(C#CC(C)(C)O)c1)C(CC)CC")
-0.23
>>> quantitative_readout("CCC(CC)(CCC#N)CNC1COC2(CCCC2)C1 (centres undefined)")
-0.555
>>> quantitative_readout("O=C(Nc1cccc(C(=O)Nc2ccc(S(=O)(=O)O)c3cc(S(=O)(=O)O)cc(S(=O)(=O)O)c23)c1)Nc1cccc(C(=O)Nc2ccc(S(=O)(=O)O)c3cc(S(=O)(=O)O)cc(S(=O)(=O)O)c23)c1")
0.865
>>> quantitative_readout("COc1ccc(/C=C2\\COc3ccc(C)cc3C2=O)cc1O")
-1.36
>>> quantitative_readout("CCOC(=O)c1nn(CCc2ccc(OC)cc2)c2c1CN(Cc1cccn1-c1ccccn1)CC2")
-1.34
>>> quantitative_readout("CN=C(NC)NCc1ccccc1")
0.38
>>> quantitative_readout("CCn1ncc2[nH]c(-c3cnn(C)c3-c3ccccc3)nc21")
-0.49
>>> quantitative_readout("CS(=O)(=O)Nc1ccc(C(=O)O)cc1")
0.365
>>> quantitative_readout("CN1CCc2ccccc2Cc2[nH]c3ccccc3c2CC1")
-0.35
>>> quantitative_readout("COc1ccc(CCn2nnnc2C2(c3ccc(C)cc3)CC2)cc1")
-0.23
>>> quantitative_readout("Cc1cc(CN2CCNCC2)ccc1OC1(C(=O)O)CCSCC1")
0.115
>>> quantitative_readout("Cc1cc(C)c(CNC(C)CCCC(C)(C)O)c(C)c1CO (centres undefined)")
0.19
>>> quantitative_readout("Cn1ccnc1")
0.675
>>> quantitative_readout("COc1ccc(CC(N)=O)cc1")
-0.175
>>> quantitative_readout("O=c1ccn2c(n1)OC1C(O)C(CO)OC12 (centres undefined)")
0.87
>>> quantitative_readout("Cc1ccc(OCc2nnc(NC(=O)NCCc3cnc[nH]3)s2)cc1")
-0.48
>>> quantitative_readout("COc1ccc(OC)c(-c2nc3ccccc3o2)c1")
-0.51
>>> quantitative_readout("[Cl-].[Cl][Pt].[NH2-].[NH2-].c1ccncc1")
-1
>>> quantitative_readout("CCc1ccc(CNC(=O)Nc2nc(C)n(C(C)C)n2)nc1")
-0.525
>>> quantitative_readout("O=C(OC1C(Oc2ccccc2COC(=O)C2(O)C=CCCC2=O)OC(CO)C(O)C1O)c1ccccc1 (centres undefined)")
-1.2
>>> quantitative_readout("CCn1c(C)nc2cc(OC3(C(=O)O)CCCCC3)ccc21")
-0.565
>>> quantitative_readout("CN1CCN(Cc2ccc3nonc3c2)CC1CCO (centres undefined)")
-0.35
